The measured values listed here are drawn from the supplement of paper PMC4862054.

system: MDA-MB-453; assay: normalised response (% of control), CellTox Green; higher = less cell death (100 = DMSO, 0 = benzethonium chloride kill control); conditions: incubation time: 72 h
Experimental endpoint: normalised response (%)
Respond with the bare value in %.

{"Compound": "CCCCCOC(=O)Nc1nc(=O)n([C@@H]2O[C@H](C)[C@@H](O)[C@H]2O)cc1F [Capecitabine] (100 nM)", "Assay result": 97.3}

Q) Tell me its normalised response given CC(C)C[C@H](NC(=O)[C@H](CCc1ccccc1)NC(=O)CN1CCOCC1)C(=O)N[C@@H](Cc1ccccc1)C(=O)N[C@@H](CC(C)C)C(=O)[C@@]1(C)CO1 [Carfilzomib] (100 nM) as the entry.
A) 90.1

Q) Annotate the compound CCN(CC)CCOc1ccc(C(=C(Cl)c2ccccc2)c2ccccc2)cc1 [Clomifene] (100 nM) with its measured normalised response.
A) 104

Q) Provide only the value of recorded normalised response for N[C@@H](Cc1ccc(N(CCCl)CCCl)cc1)C(=O)O [Melphalan] (12500 nM)
A) -17.4

Q) Answer with the recorded normalised response for the compound listed here: COc1cc2c(cc1-c1c(C)noc1C)ncc1[nH]c(=O)n([C@H](C)c3ccccn3)c12 [I-BET151] (100 nM)
A) 98.3

Q) Look up and report measured normalised response for this entry: CC(C)C[C@H](NC(=O)[C@H](CCc1ccccc1)NC(=O)CN1CCOCC1)C(=O)N[C@@H](Cc1ccccc1)C(=O)N[C@@H](CC(C)C)C(=O)[C@@]1(C)CO1 [Carfilzomib] (1000 nM)
A) 91.3

###

Catalogue of normalised viability readings, one per entry.
test system: MFM-223; assay: normalised viability (% of control), CellTiter-Blue; higher = more viable cells (100 = DMSO, 0 = benzethonium chloride kill control); details: incubation time: 72 h
Write the value in % as a bare number.

Q) Answer with normalised viability of C[C@@H]1C[C@H]2[C@@H]3CCC4=CC(=O)C=C[C@]4(C)[C@@]3(F)[C@@H](O)C[C@]2(C)[C@@]1(O)C(=O)CO [Dexamethasone] (1 nM) measured for MFM-223.
A) 91.6

Q) Please tell me the measured normalised viability for N[C@@H](Cc1ccc(N(CCCl)CCCl)cc1)C(=O)O [Melphalan] (0.099 nM) ; system: MFM-223.
A) 94.3

###

test system: HDQ-P1; assay: normalised viability (% of control), CellTiter-Blue; higher = more viable cells (about 100 = DMSO control); conditions: incubation time: 72 h
Attribute: normalised viability
Field: numeric (%). Do not append units.

Q) For CC/C(=C(\c1ccccc1)c1ccc(OCCN(C)C)cc1)c1ccccc1 [Tamoxifen] (10000 nM) , write its normalised viability.
A) 78.5

Q) Please list normalised viability recorded for the compound C[C@@H](C(=O)O)c1ccc(-c2ccccc2)c(F)c1 [Tarenflurbil] (10000 nM)
A) 129

Q) Could you please provide reported normalised viability for COc1cc2c(N3CCN(C(=O)Nc4ccc(OC(C)C)cc4)CC3)ncnc2cc1OCCCN1CCCCC1 [Tandutinib] (1000 nM) ? Thanks!
A) 128

###

Entries annotated with measured drug sensitivity score
test system: MDA-MB-436; experiment: drug sensitivity score (DSS), CellTiter-Glo (DSS (AUC-based score)); higher = stronger drug effect (viability inhibition or cytotoxicity); extreme values may be limits of the assay; conditions: incubation time: 72 h
Quick one: just the number, no unit, thanks!

Take a look at these entries with their results.
{"Compound": "Cc1c(N)nc([C@H](CC(N)=O)NC[C@H](N)C(N)=O)nc1C(=O)N[C@H](C(=O)N[C@H](C)[C@@H](O)[C@H](C)C(=O)N[C@H](C(=O)NCCc1nc(-c2nc(C(=O)NCCC[S+](C)C)cs2)cs1)[C@@H](C)O)[C@@H](OC1OC(CO)C(O)C(O)C1OC1OC(CO)C(O)C(OC(N)=O)C1O)c1cnc[nH]1 (some centres undefined) [Bleomycin]", "System": "MDA-MB-436", "drug sensitivity score": 4.49}
{"Compound": "CC(C)(C)Cn1c(N)nc2ccc(-c3[nH]c(C(C)(C)C)nc3-c3ccc(F)cc3)nc21", "System": "MDA-MB-436", "drug sensitivity score": 0}
{"Compound": "COc1cc2c(N3CCN(C(=O)Nc4ccc(OC(C)C)cc4)CC3)ncnc2cc1OCCCN1CCCCC1 [Tandutinib]", "System": "MDA-MB-436", "drug sensitivity score": 0}

Now for another entry.
Q) Using known records, supply drug sensitivity score for CCc1c(C(=O)C(N)=O)c2c(OCC(=O)O)cccc2n1Cc1ccccc1 [Varespladib]
A) 0

###

test system: DU-4475; assay: normalised viability (% of control), CellTiter-Blue; higher = more viable cells (about 100 = DMSO control); conditions: incubation time: 72 h
Experimental endpoint: normalised viability
Entry format: amount then unit.

Observe how each entry below is paired with its result.
{"Compound": "O=C(O)CC[C@H]1CC[C@@](c2cc(F)ccc2F)(S(=O)(=O)c2ccc(Cl)cc2)CC1 [MK-0752] (100 nM)", "normalised viability": "122%"}
{"Compound": "CCN(CC)CCOc1ccc(C(=C(Cl)c2ccccc2)c2ccccc2)cc1 [Clomifene] (1000 nM)", "normalised viability": "103%"}
{"Compound": "CC/C(=C(\\c1ccccc1)c1ccc(OCCN(C)C)cc1)c1ccccc1 [Tamoxifen] (1000 nM)", "normalised viability": "112%"}
{"Compound": "NC1(c2ccc(-c3nc4ccn5c(=O)[nH]nc5c4cc3-c3ccccc3)cc2)CCC1 [MK-2206] (100 nM)", "normalised viability": "92.7%"}
{"Compound": "CN1CCN(c2nc(C3=C(c4c[nH]c5ccccc45)C(=O)NC3=O)c3ccccc3n2)CC1 [Sotrastaurin] (1000 nM)", "normalised viability": "95.8%"}

Shifting focus to the compound that follows.
Q) Recall the reported normalised viability of C[C@@H](CN1CC(=O)NC(=O)C1)N1CC(=O)NC(=O)C1 [Dexrazoxane] (1000 nM) on DU-4475 and write it down.
A) 83.6%

###

Attribute: normalised response
tested on: HCC1599; experiment: normalised response (% of control), CellTiter-Glo; higher = more viable cells (100 = DMSO, 0 = benzethonium chloride kill control); conditions: incubation time: 72 h
Note: unit % is implicit; provide only the numeric part.

{"Compound": "CO[C@H](C(=O)[C@@H](O)[C@@H](C)O)[C@@H]1Cc2cc3cc(O[C@H]4C[C@@H](O[C@@H]5C[C@@H](O)[C@H](O)[C@@H](C)O5)[C@H](O)[C@@H](C)O4)c(C)c(O)c3c(O)c2C(=O)[C@H]1O[C@H]1C[C@@H](O[C@@H]2C[C@@H](O)[C@@H](O[C@@H]3C[C@](C)(O)[C@H](O)[C@@H](C)O3)[C@@H](C)O2)[C@H](O)[C@@H](C)O1 [Plicamycin] (10 nM)", "Assay result": 117}
{"Compound": "CC(C)NC[C@@H](C(=O)N1CCN(c2ncnc3c2[C@H](C)C[C@H]3O)CC1)c1ccc(Cl)cc1 [GDC-0068] (10 nM)", "Assay result": 90.8}
{"Compound": "CC[C@@H]1C(=O)N(C)c2cnc(Nc3ccc(C(=O)N[C@H]4CC[C@H](N5CCN(CC6CC6)CC5)CC4)cc3OC)nc2N1C(C)C [Volasertib] (1 nM)", "Assay result": 113}
{"Compound": "CC[C@@H]1C(=O)N(C)c2cnc(Nc3ccc(C(=O)N[C@H]4CC[C@H](N5CCN(CC6CC6)CC5)CC4)cc3OC)nc2N1C(C)C [Volasertib] (0.1 nM)", "Assay result": 96.6}

Q) Supply reported normalised response belonging to this compound: CN1CCN(c2nc(C3=C(c4c[nH]c5ccccc45)C(=O)NC3=O)c3ccccc3n2)CC1 [Sotrastaurin] (1000 nM)
A) 115

Q) For Cn1cc(C[C@@H](N)C(=O)O)c2ccccc21 [1-methyl-D-tryptophan] (0.5 nM) , write its normalised response.
A) 102

Q) For the compound CN1CCc2c(c3ccccc3n2Cc2ccc(C(=O)NO)cc2)C1 [Tubastatin A] (1 nM) , give its reported normalised response.
A) 101

Q) Provide normalised response value for the following compound: CC(C)C[C@H](NC(=O)[C@H](CCc1ccccc1)NC(=O)CN1CCOCC1)C(=O)N[C@@H](Cc1ccccc1)C(=O)N[C@@H](CC(C)C)C(=O)[C@@]1(C)CO1 [Carfilzomib] (100 nM)
A) 52

Q) Let me know recorded normalised response for CCc1c(C(=O)C(N)=O)c2c(OCC(=O)O)cccc2n1Cc1ccccc1 [Varespladib] (1000 nM) , thanks.
A) 96.4

Q) Write down normalised response measured for item Nc1nc(Cl)nc2c1ncn2[C@@H]1O[C@H](CO)[C@@H](O)[C@@H]1F [Clofarabine] (1000 nM)
A) 61.7

Q) Please give measured normalised response of the following entry: CC/C(=C(\c1ccccc1)c1ccc(OCCN(C)C)cc1)c1ccccc1 [Tamoxifen] (10 nM)
A) 103
